B1: library; a variant is named by its letters at N, in order (parent)
chain: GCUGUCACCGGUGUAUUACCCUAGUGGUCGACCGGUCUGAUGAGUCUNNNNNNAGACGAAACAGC

variants of: B1; test: normalized RNA/DNA level without ligand (relative to sTRSVctl = 100) (log10 (% of sTRSVctl)); ligand: hypoxanthine (xanthine aptamer); higher = less ribozyme self-cleavage, higher mRNA level; conditions: HEK293T, reporter: mCherry (pCS4076), ligand present: no
Entries annotated with measured normalized RNA/DNA level without ligand (log10)
QUANTITY: normalized RNA/DNA level without ligand (log10)

>>> recorded_measurement("GCUGUCACCGGUGUAUUACCCUAGUGGUCGACCGGUCUGAUGAGUCUAGGGACAGACGAAACAGC [AGGGAC]")
1.7
>>> recorded_measurement("GCUGUCACCGGUGUAUUACCCUAGUGGUCGACCGGUCUGAUGAGUCUUUCAUAAGACGAAACAGC [UUCAUA]")
1.84
>>> recorded_measurement("GCUGUCACCGGUGUAUUACCCUAGUGGUCGACCGGUCUGAUGAGUCUACCGGAAGACGAAACAGC [ACCGGA]")
1.9
>>> recorded_measurement("GCUGUCACCGGUGUAUUACCCUAGUGGUCGACCGGUCUGAUGAGUCUAGGUGCAGACGAAACAGC [AGGUGC]")
1.68
>>> recorded_measurement("GCUGUCACCGGUGUAUUACCCUAGUGGUCGACCGGUCUGAUGAGUCUGACAUGAGACGAAACAGC [GACAUG]")
1.4
>>> recorded_measurement("GCUGUCACCGGUGUAUUACCCUAGUGGUCGACCGGUCUGAUGAGUCUAUGCCCAGACGAAACAGC [AUGCCC]")
1.87
>>> recorded_measurement("GCUGUCACCGGUGUAUUACCCUAGUGGUCGACCGGUCUGAUGAGUCUCGACUCAGACGAAACAGC [CGACUC]")
2.01
>>> recorded_measurement("GCUGUCACCGGUGUAUUACCCUAGUGGUCGACCGGUCUGAUGAGUCUGGAUAAAGACGAAACAGC [GGAUAA]")
1.74
>>> recorded_measurement("GCUGUCACCGGUGUAUUACCCUAGUGGUCGACCGGUCUGAUGAGUCUGCGAUUAGACGAAACAGC [GCGAUU]")
1.65
>>> recorded_measurement("GCUGUCACCGGUGUAUUACCCUAGUGGUCGACCGGUCUGAUGAGUCUUGUUGAAGACGAAACAGC [UGUUGA]")
1.67
>>> recorded_measurement("GCUGUCACCGGUGUAUUACCCUAGUGGUCGACCGGUCUGAUGAGUCUCCCCACAGACGAAACAGC [CCCCAC]")
1.9
>>> recorded_measurement("GCUGUCACCGGUGUAUUACCCUAGUGGUCGACCGGUCUGAUGAGUCUCACAAAAGACGAAACAGC [CACAAA]")
1.76
>>> recorded_measurement("GCUGUCACCGGUGUAUUACCCUAGUGGUCGACCGGUCUGAUGAGUCUUGUCUUAGACGAAACAGC [UGUCUU]")
1.91
>>> recorded_measurement("GCUGUCACCGGUGUAUUACCCUAGUGGUCGACCGGUCUGAUGAGUCUUAAAGUAGACGAAACAGC [UAAAGU]")
1.54

These measurements were taken from the supplement of paper PMC6757056.
